system: human 5-HT2C (INI) receptor (Homo sapiens)
Sequence (P28335 33-458): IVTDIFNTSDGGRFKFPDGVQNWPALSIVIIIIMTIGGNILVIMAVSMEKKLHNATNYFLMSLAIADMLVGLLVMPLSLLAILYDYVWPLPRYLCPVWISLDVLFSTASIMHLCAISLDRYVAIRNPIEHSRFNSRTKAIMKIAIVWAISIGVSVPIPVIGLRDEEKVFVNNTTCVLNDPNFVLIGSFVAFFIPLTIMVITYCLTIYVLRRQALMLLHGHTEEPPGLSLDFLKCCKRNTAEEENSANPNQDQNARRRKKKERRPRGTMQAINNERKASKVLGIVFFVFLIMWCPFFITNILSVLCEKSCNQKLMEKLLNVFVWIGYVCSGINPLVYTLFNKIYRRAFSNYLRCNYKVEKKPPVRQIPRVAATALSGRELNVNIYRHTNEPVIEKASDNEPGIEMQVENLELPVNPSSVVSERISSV
test-details: Calcium flux assay, 5-HT2C
condition-set: 5-HT2C EC50, HEK-293; Table 2 section 4; NA: Emax ≤ 12%
pEC50: −log10 of the molar value.
Overview of recorded pEC50 for various compounds
readout: pEC50

[[record]]
compound = "Cl.NC[C@H]1C[C@@H]1c1ccccc1F (relative stereo)"
system = "human 5-HT2C (INI) receptor (Homo sapiens)"
readout = "pEC50"
number = 7.48

[[record]]
compound = "Cl.NC[C@H]1C[C@@H]1c1ccc(F)cc1 (relative stereo)"
system = "human 5-HT2C (INI) receptor (Homo sapiens)"
readout = "pEC50"
number = 7.96

